assay.comment: Human HepG2 cell viability assay in 384 well format
Assay type: toxicity, cell-based
Set-up: dose 125 nL, time 70.5 hour; concentration not given beside the values
run.parameters: HepG2 cells, read-out: Inhibition
I'd be grateful if you could share measured cytotoxicity at 70.5 h for these entries.
API: value field is a number in %; no unit string.

Task item: Please look at this compound and report its cytotoxicity at 70.5 h: "NC(=O)CN1CC(c2nc(C3CC3)no2)C1"
Reply: -7.4

Task item: Please look at this compound and report its cytotoxicity at 70.5 h: N#CCCN(C(=O)CN1CCCC1Cc1ccccc1)c1ccccc1 (configuration not stated)
Reply: 0.569

Task item: Please look at this compound and report its cytotoxicity at 70.5 h: "CCCN(CC1CC1)C(=O)Cn1ccccc1=O"
Reply: -3.4

Task item: Please look at this compound and report its cytotoxicity at 70.5 h: "CCOc1ccnc(N2CCN(C(=O)c3cc(Cl)c[nH]3)CC2)n1"
Reply: 25.8

Task item: Please look at this compound and report its cytotoxicity at 70.5 h: "Cn1cc(S(=O)(=O)Nc2ccc3[nH]c(C4CCC4)nc3c2)cn1"
Reply: 0.665

Task item: Please look at this compound and report its cytotoxicity at 70.5 h: "Clc1cc(NCc2nccs2)nc2[nH]ccc12"
Reply: -30.7

Task item: Please look at this compound and report its cytotoxicity at 70.5 h: "COCCCn1ccc(NC2CCOCC2)n1"
Reply: -7.45
